Answer each item with its documented TGI.
system: HCT-15 colon; test: NCI tumour cell line growth inhibition, 48 h

In: Give the measured TGI of `c1cc2ccc3cc2cc1CNCCN1CCNCc2ccc4ccc(cc4c2)CNCCN(CCNC3)CCNCc2ccc3ccc(cc3c2)CNCC1` .
Out: > 100 µM

In: Give the measured TGI of `O=S(=O)(N/N=C/c1c(Cl)cccc1Cl)c1ccccc1` .
Out: > 100 µM

In: Give the measured TGI of `N#Cc1cc(-c2nc3cc(F)ccc3s2)ccc1N` .
Out: > 100 µM

In: Give the measured TGI of `Cn1cccc(C(=O)c2ccccc2)c1=O` .
Out: > 100 µM

In: Give the measured TGI of `CN(C)c1ccc(Cc2cc(C(C)(C)C)cc(C(C)(C)C)c2O)cc1` .
Out: 34.3 µM

In: Give the measured TGI of `Cn1ccnc1Cn1cc(-c2cccc(-c3cn[nH]c3)c2)cn1` .
Out: > 100 µM

In: Give the measured TGI of `Cc1ccc(S(=O)(=O)N2CCCN(S(=O)(=O)c3ccc(C)cc3)CC2)cc1` .
Out: > 100 µM

In: Give the measured TGI of `CCCCCCCCCCCCCCNc1nc(C(=O)OCC)ncc1-c1ccc(C(F)(F)F)cc1` .
Out: > 100 µM

In: Give the measured TGI of `COc1ccc2[nH]c(C(=O)N3CCN(C(=O)OCc4ccc5c(Br)cc(Br)c(O)c5n4)CC3)cc2c1` .
Out: 0.596 µM

In: Give the measured TGI of C/C1=C/C2OC(=O)C3(C)C2C(CC2(C)OC1=CC2=O)OC3(O)C(C)C (centres undefined) .
Out: > 63.1 µM

In: Give the measured TGI of `COC(=O)CCCc1ccc2c(c1)CC1(Cc3ccccc3C1)C2` .
Out: 97.3 µM

In: Give the measured TGI of NCCOc1ncccc1/C=C1\C2C=CC=CC2C2C=CC(F)=CC12 (centres undefined) .
Out: 2.28 µM

In: Give the measured TGI of `COc1ccc(-c2c3ccccc3c(-c3ccc(OC)cc3)c3ccccc23)cc1` .
Out: > 100 µM

In: Give the measured TGI of `Cc1ccc(NC(=O)CSc2nnc(Cc3ccccc3)o2)c(C)c1` .
Out: > 100 µM
